assay: NCI Yeast Anticancer Drug Screen. Data for the mlh1 rad18 strain (AID 175); conditions: S. cerevisiae mlh1 rad18 strain growth inhibition; at 50.0 µM; stronger effect = higher value
About 79,000 compounds went through this panel and 15% of them were active in at least one assay; those are over-represented in the sample as a whole.

[
  {
    "compound": "CCCCS(=O)(=O)c1ccc(Cl)cc1",
    "growth inhibition [%]": 21.9
  },
  {
    "compound": "CC(C)c1ccc(O)c(Cc2cc(C(C)C)cc(Cc3cc(C(C)C)ccc3O)c2O)c1",
    "growth inhibition [%]": -3.25
  },
  {
    "compound": "CCOC(=O)NC(NC(=O)OCC)c1ccc2c(c1)OCO2",
    "growth inhibition [%]": 3.8
  },
  {
    "compound": "N=C1C(=O)C(=N)c2ccccc2-c2ccccc21",
    "growth inhibition [%]": -23.9
  },
  {
    "compound": "CCSc1nc(C)nc2c1cnn2-c1ccccc1",
    "growth inhibition [%]": 1.95
  },
  {
    "compound": "COc1cc([N+](=O)[O-])c(OC)cc1Nc1ccccc1C(=O)O",
    "growth inhibition [%]": 16
  }
]
